test system: MDA‐MB‐231 breast cancer cells; assay: MTT cell viability assay, MDA-MB-231; type: cell-based, human; conditions: Homo sapiens, MDA-MB-231, 72 h, MTT, 72 h
pIC50: −log10 of the molar value.
metric.name: pIC50

Past entries and their recorded results:
compound	pIC50
Cc1ccc(Cc2n[nH]c(=O)n2NC(=O)c2cc3c(ccc4ccccc43)oc2=O)cc1 [Derivative 5e]	4.21
O=C(Nn1c(-c2ccccc2)n[nH]c1=O)c1cc2c(ccc3ccccc32)oc1=O [Derivative 5c]	4.19
CCc1n[nH]c(=O)n1NC(=O)c1cc2c(ccc3ccccc32)oc1=O [Derivative 5b]	4.02

I. O=C(Nn1c(Cc2ccccc2)n[nH]c1=O)c1cc2c(ccc3ccccc32)oc1=O [Derivative 5d]
II. Cc1n[nH]c(=O)n1NC(=O)c1cc2c(ccc3ccccc32)oc1=O [Derivative 5a]
Task for the reader: decide whether I or II has the larger pIC50. Pick one and reply with its label.
II
